# System: Wi-38 normal human lung fibroblast cells
# ASSAY PROTOCOL: MTT assay against normal human cell line
# Type: cell-based
# CONDITIONS: Homo sapiens, WI-38, 72 h, read-out: Wi-38 IC50
OBSERVABLE: IC50 (nM)
State the answer as a number, implicitly in nM.

Would you please look over these solved cases?
{"COMPOUND": "Cc1cc(=O)n2c(C)nn(CC(=O)N/N=C/c3ccc(Br)cc3)c2n1 [Compound 18]", "READOUT UNITS": "nM", "IC50": 593}
{"COMPOUND": "CC(=O)Nc1c(N)nc(SCC(=O)NN)[nH]c1=O [Compound 5]", "READOUT UNITS": "nM", "IC50": 801}
{"COMPOUND": "CC(=O)Nc1c(N)nc(SCC(=O)N/N=C/c2ccc(Br)cc2)[nH]c1=O [Compound 7]", "READOUT UNITS": "nM", "IC50": 408}
{"COMPOUND": "CC(=O)Nc1c(N)nc(S)[nH]c1=O [Compound 3]", "READOUT UNITS": "nM", "IC50": 1340}
{"COMPOUND": "Cc1cc(=O)n2c(C)n[nH]c2n1 [Compound 14]", "READOUT UNITS": "nM", "IC50": 1510}

query: Request - read-out IC50 | tested on Wi-38 normal human lung fibroblast cells | compound COc1ccc(/C=N/NC(=O)CSc2nc(N)c(NC(C)=O)c(=O)[nH]2)cc1 [Compound 9]
result: 1050

query: Write down the reported IC50 of CCOC(=O)CSc1nc(N)c(NC(C)=O)c(=O)[nH]1 [Compound 4] , test system: Wi-38 normal human lung fibroblast cells.
result: 852

query: # get_value(readout= IC50, system= Wi-38 normal human lung fibroblast cells) for COc1cccc2c1C(=O)c1c(O)c3c(c(O)c1C2=O)C[C@@](O)(C(=O)CO)C[C@@H]3O[C@H]1C[C@H](N)[C@H](O)[C@H](C)O1 [DOX., doxorubicin, reference compound]
result: 322

query: Given the entry CC(=O)Nc1c(N)nc(SCC(=O)N/N=C/c2ccc([N+](=O)[O-])cc2)[nH]c1=O [Compound 8] , what IC50 was observed with Wi-38 normal human lung fibroblast cells?
result: 713

query: State its IC50 on Wi-38 normal human lung fibroblast cells: Cc1cc(=O)n2c(C)nn(CC(=O)NN)c2n1 [Compound 16]
result: 978

query: Write down the reported IC50 of COc1ccc(/C=N/NC(=O)Cn2nc(C)n3c(=O)cc(C)nc23)cc1 [Compound 20] , test system: Wi-38 normal human lung fibroblast cells.
result: 723

query: Tell me reported IC50 for CC(=O)Nc1c(N)nc(SCC(=O)N/N=C/c2ccc(Cl)cc2)[nH]c1=O [Compound 6] , tested with Wi-38 normal human lung fibroblast cells.
result: 692

query: Wi-38 normal human lung fibroblast cells / IC50 / Cc1cc(=O)n2c(C)nn(CC(=O)N/N=C/c3ccccc3O)c2n1 [Compound 21] : value?
result: 518

query: Entry CC(=O)Nc1c(N)nc(SCC(=O)N/N=C/c2ccccc2O)[nH]c1=O [Compound 10] , system Wi-38 normal human lung fibroblast cells: what IC50 was measured?
result: 501

query: Quick check: IC50 on Wi-38 normal human lung fibroblast cells, item Cc1cc(=O)n2c(C)nn(CC(=O)N/N=C/c3ccc([N+](=O)[O-])cc3)c2n1 [Compound 19] ?
result: 612

query: // map COC(=O)Cn1nc(C)n2c(=O)cc(C)nc12 [Compound 15] to recorded IC50 (system: Wi-38 normal human lung fibroblast cells)
result: 1170

query: Give Wi-38 normal human lung fibroblast cells IC50 for Cc1cc(=O)n2c(C)nn(CC(=O)N/N=C/c3ccc(Cl)cc3)c2n1 [Compound 17]
result: 593
